Biological target: NAMPT (Homo sapiens, UniProt P43490)
Construct: His tag; host or cells: E. coli
Sequence (P43490 whole entry): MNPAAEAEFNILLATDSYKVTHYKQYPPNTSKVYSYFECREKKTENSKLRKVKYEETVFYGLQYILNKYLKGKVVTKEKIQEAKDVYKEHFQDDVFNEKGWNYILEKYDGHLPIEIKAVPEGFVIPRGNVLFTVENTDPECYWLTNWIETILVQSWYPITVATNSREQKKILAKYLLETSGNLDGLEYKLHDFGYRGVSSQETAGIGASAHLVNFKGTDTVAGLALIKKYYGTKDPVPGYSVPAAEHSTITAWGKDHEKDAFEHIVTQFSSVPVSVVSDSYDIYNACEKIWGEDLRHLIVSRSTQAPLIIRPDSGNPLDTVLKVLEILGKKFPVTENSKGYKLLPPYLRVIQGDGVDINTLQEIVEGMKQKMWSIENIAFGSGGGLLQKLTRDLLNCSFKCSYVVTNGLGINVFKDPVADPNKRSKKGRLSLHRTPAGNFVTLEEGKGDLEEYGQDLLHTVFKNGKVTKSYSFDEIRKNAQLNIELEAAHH
Assay: Biochemical inhibition assay: NAMPT enzymatic reaction, NMN quantified by mass spectrometry
Details: NAMPT enzymatic assay; read-out: Biochem IC50
What IC50 was measured for each of the following?
Answers are plain numbers, in nM.

Here are 8 compounds together with their reported answers.
O=C(NCc1ccc(S(=O)(=O)c2cccc(OC(F)(F)F)c2F)cc1)c1cc2ccncc2s1 : 9.8
O=C(NCc1ccc(S(=O)(=O)c2ccc(C(F)(F)F)cc2Cl)cc1)c1cnc2nccn2c1 : 18.4
Cc1ncccc1S(=O)(=O)c1ccc(CNC(=O)c2cnc3nccn3c2)cc1 : 20.8
O=C(NCc1ccc(S(=O)(=O)c2ccc(F)c(C(F)(F)F)c2)cc1)c1cnc2nccn2c1 : 8
O=C(NCc1ccc(S(=O)(=O)c2cc(OC(F)(F)F)ccc2Cl)cc1)c1cnc2nccn2c1 : 8
Cc1cc(Cl)cnc1S(=O)(=O)c1ccc(CNC(=O)c2cc3ccncc3o2)cc1 : 9.9
COc1cc(-n2cccn2)ccc1S(=O)(=O)c1ccc(CNC(=O)c2ccc3nccn3c2)cc1 : 21
O=C(NCc1ccc(S(=O)(=O)c2csc(-c3cccc(F)c3)n2)cc1)c1cc2cnccc2[nH]1 : 19.2

Shifting focus to the compound that follows.
What measured IC50 goes with `O=C(NCc1ccc(S(=O)(=O)c2cccnc2)cc1)c1cnc2nccn2c1` ?
5.9

====

Molecular target: NAMPT (Homo sapiens, UniProt P43490)
Construct: His tag; host or cells: E. coli
Test: Biochemical inhibition assay: NAMPT enzymatic reaction, NMN quantified by mass spectrometry
Conditions: NAMPT enzymatic reaction; read-out: Biochem IC50
Excerpt: Biochemical Inhibition Assay NAMPT Protein Purification Recombinant His-tagged NAMPT was produced in E. coli cells, purified over a Ni column, and further purified over a size-exclusion column by XTAL Biostructures. The NAMPT Enzymatic Reaction […] A mass spectrometry-based assay was used to measure the NAMPT reaction product (NMN) and the internal control (L-Cystathionine). NMN and L-Cystathionine were detected using the services of Biocius Lifesciences with the RapidFire system. […]
Hi! Just check whether IC50 is below 9 nM. Below gives satisfied, equal or above gives not satisfied.

O=C(NCc1ccc(S(=O)(=O)c2ccc(F)cc2Cl)cc1)c1cc2ccncc2o1 : not satisfied
Cc1cc(S(=O)(=O)c2ccc(CNC(=O)c3cc4cnccc4[nH]3)cc2)c(C)cc1F : not satisfied
CCCOc1ccc(S(=O)(=O)c2ccc(CNC(=O)c3cc4ccncc4o3)cc2)cc1F : satisfied
CC(C)c1ccc(S(=O)(=O)c2ccc(CNC(=O)c3cc4ccncc4s3)cc2)cc1 : satisfied
O=C(NCc1ccc(S(=O)(=O)c2ccccc2)cc1)c1cc(-c2cccnc2)[nH]n1 : not satisfied

# strict comparison: is reported IC50 < 9 nM? input = `COc1ccc(S(=O)(=O)c2ccc(CNC(=O)c3cnc4nccn4c3)cc2)cc1OC`
satisfied

// repeat for `O=C(NCc1ccc(S(=O)(=O)c2cccc3cccnc23)cc1)c1cc2ccncc2s1` and report
satisfied

// repeat for `COc1cccc(S(=O)(=O)c2ccc(CNC(=O)c3cc4ccncc4o3)cc2)c1OC` and report
not satisfied

// repeat for `Cc1cc(F)cc(S(=O)(=O)c2ccc(CNC(=O)c3cc4ccncc4s3)cc2)c1` and report
satisfied

// repeat for `CCCCOc1cc(F)ccc1S(=O)(=O)c1ccc(CNC(=O)c2cnc3[nH]ncc3c2)cc1` and report
not satisfied

// repeat for `COc1cc(Cl)ccc1S(=O)(=O)c1ccc(CNC(=O)c2ccc3nccn3c2)cc1` and report
not satisfied
